Examples of compounds with documented Solubility follow.
Test: Solubility in PBS
Assay type: physicochemical

COMPOUND	Solubility (µM)
CC(=O)N1CCC[C@]12CC=CCCCC1(CCCC=CCCCCCC[C@@](C)(C(=O)N[C@@H](Cc3ccsc3)C(=O)N[C@@H](Cc3csc4ccccc34)C(=O)N[C@@H](CCO)C(N)=O)NC(=O)[C@H](CC(C)C)NC(=O)[C@H](Cc3ccccc3)NC(=O)[C@H](C)NC(=O)[C@H](C)NC(=O)[C@H](CC(=O)O)NC(=O)[C@H](CC(=O)O)NC1=O)NC(=O)[C@H](CC(C)(C)C)NC(=O)[C@H](CC(=O)O)NC2=O (stereo partly drawn) [I-1197]	10
CC(=O)N[C@@H](Cc1ccccc1)C(=O)N[C@@H](CC(=O)O)C(=O)N[C@@H](C)C(=O)N[C@]1(C)CCCCCCC=CCOC(=O)N2CC[C@@](C(=O)N[C@@H](Cc3c(F)c(F)c(F)c(F)c3F)C(=O)N[C@@H](Cc3c[nH]c4ccccc34)C(=O)N[C@@H](CCC(N)=O)C(N)=O)(C2)NC(=O)[C@H](C(C)C)NC(=O)[C@H](Cc2ccccc2)NC(=O)[C@H](C)NC(=O)[C@H](C)NC(=O)[C@H](CC(=O)O)NC(=O)[C@H](CC(=O)O)NC1=O [I-228]	38
CC[C@H](C)[C@@H]1NC(=O)[C@H](CC(=O)O)NC(=O)[C@]2(CC=CCCCC3(CCCC=CCCCCCC[C@@](C)(C(=O)N[C@@H](Cc4ccsc4)C(=O)N[C@@H](Cc4csc5ccccc45)C(=O)N[C@@H](Cc4c[nH]cn4)C(N)=O)NC(=O)[C@H](CC(N)=O)NC(=O)[C@H](Cc4ccccc4)NC(=O)[C@H](C)NC(=O)[C@H](C)NC(=O)[C@H](CC(=O)O)NC(=O)[C@H](CC(=O)O)NC3=O)NC1=O)CCCN2C(C)=O (stereo partly drawn) [I-556]	39

###

Biological target: full-length beta-Catenin (Uniprot ID P35222) (Homo sapiens, UniProt P35222)
Construct: 10 nM full-length beta-Catenin (Uniprot ID P35222)
Assay: Fluorescence polarization IC50 (beta-catenin / 5FAM-TCF4 10-53 competition)
Type: binding
Conditions: read-out: beta-Catenin FP IC50; fluorescence polarization
pIC50: −log10 of the molar value.

COMPOUND	pIC50
CC(=O)N1CCC[C@]12CC=CCCCC1(CCCC=CCCCOC(=O)N3CC[C@@](C(=O)N[C@@H](Cc4ccsc4)C(=O)N[C@@H](Cc4csc5ccccc45)C(=O)N[C@@H](CCC(N)=O)C(N)=O)(C3)NC(=O)[C@H](CC(C)C)NC(=O)[C@H](Cc3ccccc3)NC(=O)[C@H](C)NC(=O)[C@H](C)NC(=O)[C@H](CC(=O)O)NC(=O)[C@H](CC(=O)O)NC1=O)NC(=O)[C@H](CC(C)(C)C)NC(=O)[C@H](CC(=O)OCCSSc1ccccc1)NC2=O (stereo partly drawn) [I-1952]	6.03
CC[C@H](C)[C@@H]1NC(=O)[C@H](CC(=O)O)NC(=O)[C@]2(CC=CCCCC3(CCCC=CCCCCCC[C@@](C)(C(=O)N[C@@H](Cc4ccccc4)C(=O)N[C@@H](Cc4csc5ccccc45)C(=O)N[C@@H](CCC(N)=O)C(N)=O)NC(=O)[C@H](CCC(N)=O)NC(=O)[C@H](Cc4ccccc4)NC(=O)[C@H](C)NC(=O)[C@H](C)NC(=O)[C@H](CCC(=O)O)NC(=O)[C@H](CC(=O)O)NC3=O)NC1=O)CCCN2C(=O)Cc1ccccc1 (stereo partly drawn) [I-601]	6.38
CC(=O)N1CCC[C@]12CC=CCCCC1(CCCC=CCCCOC(=O)N3CC[C@@](C(=O)N[C@@H](Cc4ccsc4)C(=O)N[C@@H](Cc4csc5ccccc45)C(=O)N[C@@H](CCC(N)=O)C(N)=O)(C3)NC(=O)[C@H](CC(C)C)NC(=O)[C@H](Cc3ccccc3)NC(=O)[C@H](C)NC(=O)[C@H](C)NC(=O)[C@H](CC(=O)O)NC(=O)[C@H](CC(=O)OCCSSc3ccccc3)NC1=O)NC(=O)[C@H](CC(C)(C)C)NC(=O)[C@H](CC(=O)O)NC2=O (stereo partly drawn) [I-1955]	5.92

###

Experiment: CHI Log D procedure
Format: physicochemical
Conditions: pH 7.4, CHI Log D

MOLECULE	chromatographic logD
CC(=O)N1CCC[C@]12CC=CCCCC1(CCCC=CCCCOC(=O)N3CC[C@@](C(=O)N[C@@H](Cc4ccccc4Cl)C(=O)N[C@@H](Cc4csc5ccccc45)C(=O)N[C@@H](CCC(N)=O)C(N)=O)(C3)NC(=O)[C@H](CC(C)C)NC(=O)[C@H](Cc3ccccc3)NC(=O)[C@H](C)NC(=O)[C@H](C)NC(=O)[C@H](CC(=O)O)NC(=O)[C@H](CC(=O)O)NC1=O)NC(=O)[C@H](Cc1cccc3ccccc13)NC(=O)[C@H](CC(=O)O)NC2=O (stereo partly drawn) [I-1110]	2.37
CC(=O)N1CCC[C@]12CC=CCCCC1(CCCC=CCCCCCC[C@@](C)(C(=O)N[C@@H](Cc3ccccc3)C(=O)N[C@@H](Cc3csc4ccccc34)C(=O)N[C@@H](CCC(N)=O)C(N)=O)NC(=O)[C@H](CCC(N)=O)NC(=O)[C@H](Cc3ccccc3)NC(=O)[C@H](C)NC(=O)[C@H](C)NC(=O)[C@H](CCC(=O)O)NC(=O)[C@H](CC(=O)O)NC1=O)NC(=O)[C@H](CC(F)F)NC(=O)[C@H](CC(=O)O)NC2=O (stereo partly drawn) [I-503]	2.09
CC(=O)N1CCC[C@]12CC=CCCCC1(CCCC=CCCCCCC[C@@](C)(C(=O)N[C@@H](Cc3ccccc3)C(=O)N[C@@H](Cc3c[nH]c4ccccc34)C(=O)N[C@@H](CCC(N)=O)C(N)=O)NC(=O)[C@H](C(C)C)NC(=O)[C@H](Cc3ccccc3)NC(=O)[C@H](C)NC(=O)[C@H](C)NC(=O)[C@H](CCC(=O)O)NC(=O)[C@H](CC(=O)O)NC1=O)NC(=O)[C@H](C)NC(=O)[C@H](Cc1ccccc1)NC2=O (stereo partly drawn) [I-201]	2.94

###

Experiment: Solubility in PBS
Assay type: physicochemical
Settings: Solubility (uM)

COMPOUND	Solubility, µM
CC(=O)N1CCC[C@]12CC=CCCCC1(CCCC=CCCCCCC[C@@](C)(C(=O)N[C@@H](Cc3ccsc3)C(=O)N[C@@H](Cc3csc4ccccc34)C(=O)N[C@@H](CCC(N)=O)C(N)=O)NC(=O)[C@H](CC(C)C)NC(=O)[C@H](Cc3ccccc3)NC(=O)[C@H](C)NC(=O)[C@H](C)NC(=O)[C@H](CC(=O)O)NC(=O)[C@H](CC(=O)O)NC1=O)NC(=O)[C@H](CC(C)(C)C)NC(=O)[C@H](CC(=O)O)NC2=O (stereo partly shown) [I-1188]	18

###

Target: beta-catenin/TCF4 engagement (Homo sapiens)
Construct: expressed in transfected cells; host or cells: HEK293
Sequence (P35222 whole entry): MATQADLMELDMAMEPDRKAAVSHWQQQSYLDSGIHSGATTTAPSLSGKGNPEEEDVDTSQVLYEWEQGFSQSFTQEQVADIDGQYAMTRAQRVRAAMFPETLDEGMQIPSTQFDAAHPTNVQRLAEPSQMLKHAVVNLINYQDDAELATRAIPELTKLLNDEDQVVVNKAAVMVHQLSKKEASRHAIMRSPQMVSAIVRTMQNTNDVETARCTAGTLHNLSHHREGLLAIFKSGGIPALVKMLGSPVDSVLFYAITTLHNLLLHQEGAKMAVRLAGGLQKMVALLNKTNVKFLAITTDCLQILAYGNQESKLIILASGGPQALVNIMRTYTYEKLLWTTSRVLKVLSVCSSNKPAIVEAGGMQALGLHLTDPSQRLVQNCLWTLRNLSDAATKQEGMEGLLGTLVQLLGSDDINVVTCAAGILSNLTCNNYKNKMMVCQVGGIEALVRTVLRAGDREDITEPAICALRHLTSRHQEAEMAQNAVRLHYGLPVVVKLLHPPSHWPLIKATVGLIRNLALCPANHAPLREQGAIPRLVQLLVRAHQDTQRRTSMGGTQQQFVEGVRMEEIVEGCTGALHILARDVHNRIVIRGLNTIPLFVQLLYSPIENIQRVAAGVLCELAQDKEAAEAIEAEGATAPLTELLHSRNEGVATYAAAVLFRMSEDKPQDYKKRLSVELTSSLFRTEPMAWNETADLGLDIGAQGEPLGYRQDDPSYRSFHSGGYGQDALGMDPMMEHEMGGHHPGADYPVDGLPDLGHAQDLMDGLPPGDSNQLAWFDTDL
Assay: Nano-BRET target engagement assay (B-cat-Halo & TCF4-Luc in HEK293 cells)
Type: cell-based
Conditions: absolute IC50; read-out: NanoBRET Abs IC50

MOLECULE	IC50
CC(=O)N1CCC[C@]12CC=CCCCC1(CCCC=CCCCOC(=O)N3CC[C@@](C(=O)N[C@@H](Cc4ccsc4)C(=O)N[C@@H](Cc4csc5ccccc45)C(=O)N[C@@H](CC(N)=O)C(N)=O)(C3)NC(=O)[C@H](CC(N)=O)NC(=O)[C@H](Cc3ccccc3)NC(=O)[C@H](C)NC(=O)C(C)(C)NC(=O)[C@H]([C@@H](C)O)NC(=O)[C@H](CC(N)=O)NC1=O)NC(=O)[C@H](CC(C)(C)C)NC(=O)[C@H](CC(=O)O)NC2=O (some centres unmarked)	> 20 µM
CC(=O)N1CCC[C@]12CC=CCCCC1(CCCC=CCCCOC(=O)N3CC[C@@](C(=O)N[C@@H](Cc4ccccc4Cl)C(=O)N[C@@H](Cc4csc5ccccc45)C(=O)N[C@@H](C)CO)(C3)NC(=O)[C@H]([C@@H](C)O)NC(=O)[C@H](Cc3ccccc3)NC(=O)[C@H](C)NC(=O)[C@H](C)NC(=O)[C@H](CN(CC(=O)O)CC(F)(F)F)NC(=O)[C@H](CC(=O)O)NC1=O)NC(=O)[C@H](CC(C)(C)C)NC(=O)[C@H](CC(=O)O)NC2=O (some centres unmarked)	> 20 µM

###

Target: full-length beta-Catenin (Uniprot ID P35222) (Homo sapiens)
Construct: 10 nM full-length beta-Catenin (Uniprot ID P35222)
Assay: Fluorescence polarization IC50 (beta-catenin / 5FAM-TCF4 10-53 competition)
Format: binding
Conditions: fluorescence polarization; read-out: beta-Catenin FP IC50

COMPOUND	ASSAY TARGET	ENDPOINT UNIT	IC50
CC(=O)N1CCC[C@]12CC=CCCCC1(CCCC=CCCCOC(=O)N3CC[C@@](C(=O)N[C@@H](Cc4ccsc4)C(=O)N[C@@H](Cc4ccc5ccccc5c4)C(=O)N[C@@H](CCC(N)=O)C(N)=O)(C3)NC(=O)[C@H](CC(C)C)NC(=O)[C@H](Cc3ccccc3)NC(=O)[C@H](C)NC(=O)[C@H](C)NC(=O)[C@H](Cc3cccc(C(=O)O)c3)NC(=O)[C@H](CC(=O)O)NC1=O)NC(=O)[C@H](CC(C)(C)C)NC(=O)[C@H](CC(=O)O)NC2=O (stereo partly drawn)	full-length beta-Catenin (Uniprot ID P35222) (Homo sapiens)	nM	17
CC(=O)N1CCC[C@]12CCCCCCC1(CCCCCCCCOC(=O)N3CC[C@@](C(=O)N[C@@H](Cc4ccccc4C#N)C(=O)N[C@@H](Cc4csc5ccccc45)C(=O)N[C@@H](CCC(N)=O)C(N)=O)(C3)NC(=O)[C@H](CC(C)C)NC(=O)[C@H](Cc3ccccc3)NC(=O)[C@H](C)NC(=O)[C@H](C)NC(=O)[C@H](CN(CC(=O)O)CC(F)(F)F)NC(=O)[C@H](CC(=O)O)NC1=O)NC(=O)[C@H](CC(C)(C)C)NC(=O)[C@H](CC(=O)O)NC2=O (stereo partly drawn)	full-length beta-Catenin (Uniprot ID P35222) (Homo sapiens)	nM	597
CC(=O)N1CCC[C@]12CC=CCCCC1(CCCC=CCCCOC(=O)N3CC[C@@](C(=O)N[C@@H](Cc4ccccc4C(F)(F)F)C(=O)N[C@@H](Cc4ccc(F)c(Br)c4)C(=O)N[C@@H](CO)C(N)=O)(C3)NC(=O)[C@H](CC(C)C)NC(=O)[C@H](Cc3ccccc3)NC(=O)[C@H](C)NC(=O)[C@H](C)NC(=O)[C@H](Cc3cccc(C(=O)O)c3)NC(=O)[C@H](CC(=O)O)NC1=O)NC(=O)[C@H](CC(C)(C)C)NC(=O)[C@H](CC(=O)O)NC2=O (stereo partly drawn)	full-length beta-Catenin (Uniprot ID P35222) (Homo sapiens)	nM	8
